# Test system: E. coli TESEC Mtb Alr
# measurement.notes: growth (OD600 after 10 h); higher = more growth (less inhibition)
# conditions.used: arabinose 10000000 nM; compound 0.1 mM; raw OD600 reference: median of DMSO wells 0.146, cell-free background 0.041
Structures can show the parent of a compound that is named as a salt.
measure.name: growth
Reply: number alone, nothing else.

Field growth (entry O=C(CCCN1CCC(n2c(=O)[nH]c3ccccc32)CC1)c1ccc(F)cc1 ) reads 0.149

Field growth (entry CCC1=C[C@H]2CN3CCc4c([nH]c5ccccc45)[C@](C(=O)OC)(C2)[C@H]13 ) reads 0.144

Field growth (entry CN1C[C@H](C(=O)N[C@]2(C)O[C@@]3(O)[C@@H]4CCCN4C(=O)[C@H](Cc4ccccc4)N3C2=O)C[C@@H]2c3cccc4[nH]cc(c34)C[C@H]21 [Dihydroergotamine tartrate] ) reads 0.082

Field growth (entry CCC(COC(=O)c1cc(OC)c(OC)c(OC)c1)(c1ccccc1)N(C)C (stereo not drawn) ) reads 0.101

Field growth (entry CCOC(=O)c1cncn1[C@H](C)c1ccccc1 [Etomidate] ) reads 0.14

Field growth (entry O=C(NCNC(=O)NC1C(=O)NC(=O)N1CO)NC1C(=O)NC(=O)N1CO (stereo not drawn) ) reads 0.135

----------
A collection of compounds and their measured growth
# Tested on: E. coli TESEC Mtb Alr
# measurement.notes: growth (OD600 after 10 h); higher = more growth (less inhibition)
# conditions.used: arabinose 1000 nM; compound 0.1 mM; raw OD600 reference: median of DMSO wells 0.294, cell-free background 0.041
Reply: number alone, nothing else.

Some solved cases for reference:
Field growth (entry C[CH2][Hg][S]c1ccccc1C(=O)[O-].[Na+] [Thimerosal] ) reads 0.162

Field growth (entry C=C(C)[C@@H]1[C@H]2OC(=O)[C@@H]1[C@]1(O)C[C@H]3O[C@]34C(=O)O[C@H]2[C@]14C [Picrotoxinin] ) reads 0.314

Field growth (entry C[N+](C)(C)CCCCCCCCCC[N+](C)(C)C [Decamethonium bromide] ) reads 0.286

Continuing:
Field growth (entry C[N+]1(C)CCCC(OC(=O)C(O)(c2ccccc2)c2ccccc2)C1 (centres undefined) [Mepenzolate bromide] ) reads 0.307

----------
# Test system: E. coli TESEC Mtb Alr
# measurement.notes: growth (OD600 after 10 h); higher = more growth (less inhibition)
# conditions.used: arabinose 10000000 nM; compound 0.1 mM; raw OD600 reference: median of DMSO wells […], cell-free background 0.052
Where a name gives a salt, the structure may show the parent alone.
A collection of compounds and their measured growth

Some solved cases for reference:
Field growth (entry CC(C)C[C@H]1C(=O)N2CCC[C@H]2[C@]2(O)O[C@](NC(=O)[C@@H]3C=C4c5cccc6[nH]c(Br)c(c56)C[C@H]4N(C)C3)(C(C)C)C(=O)N12 [Bromocryptine mesylate] ) reads 0.323

Field growth (entry OC(c1ccccc1)(c1ccccc1)C1CCNCC1 ) reads 0.333

Field growth (entry CCC1(c2ccc(N)cc2)CCC(=O)NC1=O (centres undefined) [Glutethimide, para-amino] ) reads 0.383

Continuing:
Field growth (entry O=C(NCNC(=O)NC1C(=O)NC(=O)N1CO)NC1C(=O)NC(=O)N1CO (centres undefined) ) reads 0.345

----------
# Test system: E. coli TESEC Mtb Asd
# measurement.notes: growth (OD600 after 10 h); higher = more growth (less inhibition)
# conditions.used: arabinose induction (level): Low; compound 0.1 mM; raw OD600 reference: median of DMSO wells 0.417, cell-free background 0.041
Where a name gives a salt, the structure may show the parent alone.
Kindly return met if reported growth is no lower than 0.4; return not met if it is lower.

QUERY: Answer whether growth of CCCC(C)(COC(N)=O)COC(=O)NC(C)C (stereo unspecified) is greater than or equal to 0.4.
RESULT: not met

QUERY: Answer whether growth of NCC(O)c1ccc(O)cc1 (racemic) [(+,-)-Octopamine hydrochloride] is greater than or equal to 0.4.
RESULT: met

QUERY: Answer whether growth of CCC1(CC)C(=O)C=CNC1=O is greater than or equal to 0.4.
RESULT: met

QUERY: Answer whether growth of C[C@]12C/C(=C/O)C(=O)C[C@@H]1CC[C@@H]1[C@@H]2CC[C@@]2(C)[C@H]1CC[C@]2(C)O is greater than or equal to 0.4.
RESULT: not met

QUERY: Answer whether growth of C[N+]1(C)[C@@H]2CC[C@H]1C[C@@H](OC(=O)C(CO)c1ccccc1)C2 (stereo partly specified) [Methylatropine nitrate] is greater than or equal to 0.4.
RESULT: met

QUERY: Answer whether growth of COc1cc2c(c(OC)c1OC)-c1ccc(OC)c(=O)cc1[C@@H](NC(C)=O)CC2 is greater than or equal to 0.4.
RESULT: not met

QUERY: Answer whether growth of O[C@@H]1CCCC[C@H]1N1CCC(c2ccccc2)CC1 [L(-)-vesamicol hydrochloride] is greater than or equal to 0.4.
RESULT: not met

QUERY: Answer whether growth of CC[N+]1(C)CCCC(OC(=O)C(O)(c2ccccc2)c2ccccc2)C1 (stereo unspecified) [Pipenzolate bromide] is greater than or equal to 0.4.
RESULT: met

QUERY: Answer whether growth of CN(C)C(=O)Oc1cccc([N+](C)(C)C)c1 [Neostigmine bromide] is greater than or equal to 0.4.
RESULT: not met

QUERY: Answer whether growth of C[C@@H]1CN([C@H]2CC[C@](C#N)(c3ccc(F)cc3)CC2)CC[C@]1(C(=O)O)c1ccccc1 [Levocabastine hydrochloride] is greater than or equal to 0.4.
RESULT: not met

Turning to the following molecule.
QUERY: Answer whether growth of CCN(C(C)=O)c1cccc(-c2ccnc3c(C#N)cnn23)c1 is greater than or equal to 0.4.
RESULT: not met

----------
A collection of molecules and their measured growth
# Test system: E. coli TESEC Mtb Alr
# measurement.notes: growth (OD600 after 10 h); higher = more growth (less inhibition)
# conditions.used: arabinose 1000 nM; compound 0.1 mM; raw OD600 reference: median of DMSO wells 0.294, cell-free background 0.041
Counter-ions that a name gives are not always drawn.
Reply: number alone, nothing else.

Some solved cases for reference:
Field growth (entry O=C(NCNC(=O)NC1C(=O)NC(=O)N1CO)NC1C(=O)NC(=O)N1CO (configuration not stated) [Imidurea] ) reads 0.287

Field growth (entry Oc1ccc2c3c1O[C@H]1[C@@H](O)CC[C@@]4(O)[C@@H](C2)N(CC2CCC2)CC[C@]314 [Nalbuphine hydrochloride] ) reads 0.262

Field growth (entry CCC1(c2ccc(N)cc2)CCC(=O)NC1=O (configuration not stated) [Glutethimide, para-amino] ) reads 0.279

Field growth (entry CC(C)c1c(CN(C)C(C)Cc2ccccc2)n(C)n(-c2ccccc2)c1=O (configuration not stated) [Famprofazone] ) reads 0.279

Field growth (entry CN(C)[C@@H]1C(=O)C(C(N)=O)=C(O)[C@@]2(O)C(=O)C3=C(O)c4c(O)cccc4[C@@](C)(O)[C@H]3[C@H](O)[C@@H]12 [Oxytetracycline dihydrate] ) reads 0.0424

Field growth (entry C[C@]12CCC(=O)C=C1C=C[C@@H]1[C@@H]2CC[C@@]2(C)[C@H]1CC[C@@]2(O)CCC(=O)O [Canrenoic acid potassium salt] ) reads 0.275

Field growth (entry CN1[C@@H]2C[C@@H](OC(=O)[C@H](CO)c3ccccc3)C[C@H]1[C@@H]1O[C@@H]12 [Scopolamine hydrochloride] ) reads 0.321

Field growth (entry NCC(CC(=O)O)c1ccc(Cl)cc1 (racemic) [Baclofen (R,S)] ) reads 0.299

Field growth (entry O=C(CCCN1CCC2(CC1)C(=O)NCN2c1ccccc1)c1ccc(F)cc1 [Spiperone] ) reads 0.273

Field growth (entry CC(=O)[C@H]1CC[C@H]2[C@@H]3CC[C@H]4C[C@H](O)CC[C@]4(C)[C@H]3C(=O)C[C@]12C [Alfaxalone] ) reads 0.162

Continuing:
Field growth (entry CN1[C@@H]2CC[C@H]1C[C@@H](OC(=O)[C@H](CO)c1ccccc1)C2 [Hyoscyamine (L)] ) reads 0.293

Field growth (entry CC(C)[N+](C)(CCC(C(N)=O)(c1ccccc1)c1ccccc1)C(C)C [Isopropamide iodide] ) reads 0.285

----------
A collection of compounds and their measured growth
# Test system: E. coli TESEC Mtb Asd
# measurement.notes: growth (OD600 after 10 h); higher = more growth (less inhibition)
# conditions.used: arabinose induction (level): High; compound 0.1 mM; raw OD600 reference: median of DMSO wells 0.331, cell-free background 0.041
Counter-ions that a name gives are not always drawn.

Field growth (E. coli TESEC Mtb Asd), entry OC(c1ccccc1)(c1ccccc1)C1CCNCC1 : 0.296

Field growth (E. coli TESEC Mtb Asd), entry C=CCC1(CC(C)C)C(=O)NC(=O)NC1=O : 0.407

Continuing:
Field growth (E. coli TESEC Mtb Asd), entry CCC(=O)O[C@H]1CC[C@H]2[C@@H]3CCC4=CC(=O)CC[C@]4(C)[C@H]3CC[C@]12C [Testosterone propionate] : 0.336

Field growth (E. coli TESEC Mtb Asd), entry Clc1ccc(C(OCCN2CCCCC2)c2ccccc2)cc1 (configuration not stated) [Cloperastine hydrochloride] : 0.113

Field growth (E. coli TESEC Mtb Asd), entry C[C@]12C[C@H]3S[C@H]3C[C@@H]1CC[C@@H]1[C@@H]2CC[C@]2(C)[C@@H](O)CC[C@@H]12 [Epitiostanol] : 0.162

Field growth (E. coli TESEC Mtb Asd), entry C[C@]12CC[C@@H](O)C[C@H]1CC[C@@H]1[C@@H]2CC[C@]2(C)C(=O)CC[C@@H]12 [3-alpha-Hydroxy-5-beta-androstan-17-one] : 0.118

Field growth (E. coli TESEC Mtb Asd), entry C=C(C)[C@@H]1[C@H]2OC(=O)[C@@H]1[C@]1(O)C[C@H]3O[C@]34C(=O)O[C@H]2[C@]14C : 0.343
